Catalogue of remaining activity at 10 µM readings, one per entry.
# measured_on: CLK2 (Mus musculus, UniProt O35491)
# Sequence (O35491 whole entry): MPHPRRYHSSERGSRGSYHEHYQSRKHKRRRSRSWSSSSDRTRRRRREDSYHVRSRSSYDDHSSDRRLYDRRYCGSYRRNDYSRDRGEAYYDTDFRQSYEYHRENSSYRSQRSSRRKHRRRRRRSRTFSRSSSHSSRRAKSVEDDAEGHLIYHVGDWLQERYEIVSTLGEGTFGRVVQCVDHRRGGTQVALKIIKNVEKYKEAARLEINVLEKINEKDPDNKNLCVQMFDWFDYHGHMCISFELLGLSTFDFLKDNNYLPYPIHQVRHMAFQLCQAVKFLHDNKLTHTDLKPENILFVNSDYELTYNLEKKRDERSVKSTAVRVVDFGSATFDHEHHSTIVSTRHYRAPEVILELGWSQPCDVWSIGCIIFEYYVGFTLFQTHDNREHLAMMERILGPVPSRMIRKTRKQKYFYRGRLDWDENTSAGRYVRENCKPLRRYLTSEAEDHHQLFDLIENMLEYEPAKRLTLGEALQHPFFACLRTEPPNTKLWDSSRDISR
# assay_info: Protein kinase assay ([γ-33P]-ATP, RS peptide substrate), CLK2
# Assay type: biochemical
# details: 10 µM compound, compared to controls; read-out: Residual Activity at 10 µM CLK2
Write down the numeric answer in % and omit the unit.

# compound, display_unit, remaining activity at 10 µM
records = [
    ("Cc1cccc2c(C#N)c(-c3ccccc3)[nH]c12", "%", 75),
]

Please look at this compound and report its remaining activity at 10 µM: N#Cc1c(-c2ccc(Cl)cc2)[nH]c2c(I)cccc12
92

Please look at this compound and report its remaining activity at 10 µM: N#Cc1cn(Cc2ccccc2)c2c(Cl)cccc12 [Compound 13a]
95

Please look at this compound and report its remaining activity at 10 µM: Cn1cc(C#N)c2cccc(Cl)c21 [Compound 13c]
70
